- target-of-assay: Cytochrome P450 2C19 (Homo sapiens)
- experiment-summary: Cytochrome panel assay with activity outcomes; as to activity, negative = inhibition: % is scaled to controls: 0 for no effect and ±100 for the full control effect
- experimental-parameters: recombinant CYP, pro-luciferin dealkylation, luminescence, p450-cyp2c19; series mostly up to 57.1 µM
About 5,800 (36%) of roughly 16,000 compounds were called active. Not shown: some 23% with an inconclusive outcome. The list shows a part of the results.
Some molecules, each annotated with its measured activity, negative = inhibition.

**Query** Entry "O=C(O)[C@@H](c1ccccc1)[C@@H](C(=O)O)c1ccccc1" : reported activity, negative = inhibition = ?
**Result** 8.57% [at 11.4 µM] (inactive)

**Query** How about "Cc1ccc(S(=O)(=O)Oc2cc(S(=O)(=O)O)cc3cc(S(=O)(=O)O)cc(N)c23)cc1" ?
**Result** 7.86% [at 11.4 µM] (inactive)

**Query** How about "COC(=O)[C@@H]1CC[C@H](C)[C@@H](c2ccc(C)cc2)N1C(=O)c1ccc(/C=N\O[C@@H](C)CN2CCCc3nc(C)c(C)cc32)cc1" ?
**Result** 24.5% [at 11.4 µM] (inactive)

**Query** How about "COc1cccc2c1C(=N)c1c(O)c3c(c(O)c1C2=O)C[C@](O)(C(C)=O)C[C@@H]3O[C@H]1C[C@H](N)[C@@H](O)[C@H](C)O1" ?
**Result** -44.3% [at 11.4 µM] (inactive)

**Query** How about "N[C@@](CCc1ccccc1)(C(=O)O)c1ccccc1" ?
**Result** -19.5% [at 11.4 µM] (inactive)

###

- target-of-assay: Cytochrome P450 2C19 (Homo sapiens) (UniProt P33261)
- Sequence (P33261 whole entry, looked up): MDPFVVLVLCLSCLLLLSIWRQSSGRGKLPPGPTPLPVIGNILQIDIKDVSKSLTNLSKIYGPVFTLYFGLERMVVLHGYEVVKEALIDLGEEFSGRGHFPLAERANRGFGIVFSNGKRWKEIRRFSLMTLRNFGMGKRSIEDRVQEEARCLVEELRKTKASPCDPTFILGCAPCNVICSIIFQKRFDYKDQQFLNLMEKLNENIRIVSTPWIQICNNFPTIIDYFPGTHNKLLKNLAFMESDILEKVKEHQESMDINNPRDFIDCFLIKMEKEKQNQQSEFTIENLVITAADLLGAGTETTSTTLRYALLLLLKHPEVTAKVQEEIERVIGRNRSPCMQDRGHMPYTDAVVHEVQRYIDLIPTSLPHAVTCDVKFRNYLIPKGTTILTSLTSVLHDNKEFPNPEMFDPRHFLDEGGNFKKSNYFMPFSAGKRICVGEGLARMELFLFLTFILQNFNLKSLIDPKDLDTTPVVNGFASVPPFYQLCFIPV
- experiment-summary: Cytochrome panel assay with activity outcomes
- experimental-parameters: recombinant CYP, pro-luciferin dealkylation, luminescence, p450-cyp2c19; series mostly up to 57.1 µM
About 5,800 (36%) of roughly 16,000 compounds were called active. Roughly 23% stayed inconclusive and do not appear here. The call rests on the fitted dose curve; in most records, active means well fitted curve in the direction sought with a large enough effect; inconclusive means small, poorly fitted or top-dose-only effect, or effect the other way; inactive means no such curve, though single readings can be large or run the other way. This is one part of the list.
Respond only with the outcome that fits, drawn from active, inactive

>>> group_label("O=C(c1ccco1)N1CCC2(CC1)CCN(c1ccc(-c3ccccc3)cc1)CC2")
"inactive"
>>> group_label("CN(C)CCCNc1c(C(=O)O)cnc2c1cnn2C")
"inactive"
>>> group_label("Cn1cccc1C(=O)N1CCC[C@@]2(CCN(c3ccncc3)C2)C1")
"active"

**Query** Name the outcome recorded for "O=C(c1ccco1)N1CCC[C@@]2(CCN(c3ccccc3)C2)C1" in the assay.
**Result** active

**Query** How about CCc1ccc(N(C(=O)c2ccoc2C)C(C(=O)NC2CCCC2)c2ccc(OC)cc2)cc1 (centres undefined) ?
**Result** active

###

- target-of-assay: Cytochrome P450 2C19 (Homo sapiens) (UniProt P33261)
- experiment-summary: Cytochrome panel assay with activity outcomes
- experimental-parameters: recombinant CYP, pro-luciferin dealkylation, luminescence, p450-cyp2c19; series mostly up to 57.1 µM
About 5,800 (36%) of roughly 16,000 compounds were called active. Not shown: some 23% with an inconclusive outcome. The list shows a part of the results.
readout-kind: AC50

Known results for molecules:
>>> result("CCC(CC)C(=O)Nc1cccc(/C(C)=N\\NC(=O)c2ccc(C)s2)c1")
"inactive"
>>> result("CN(Cc1ccco1)c1ncnc2ccc(-c3ccc4c(c3)OCO4)cc12")
"0.631 µM (active)"
>>> result("O=C(CSc1nnc(COc2ccccc2)n1-c1ccccc1)c1ccccc1")
"3.98 µM (active)"
>>> result("CC(C)CN1CCC2(CC1)CCN(S(=O)(=O)c1ccccc1)CC2")
"inactive"
>>> result("CC(C)(C)c1cccc(Oc2nn[nH]n2)c1")
"7.94 µM (active)"
>>> result("C/C(=N/NC(=O)c1ccc(C)s1)c1cccc(NC(=O)COc2ccc(Cl)cc2C)c1")
"3.16 µM (active)"

**Query** Entry "COc1ccc(-c2nc3cnc(N4CCNCC4)nc3n(Cc3cccs3)c2=O)cc1" : reported AC50 = ?
**Result** inactive

**Query** How about "O=c1c(-c2ccc(F)cc2)nc2cnc(N3CCOCC3)nc2n1Cc1cccs1" ?
**Result** inactive

**Query** How about "O=c1c(-c2ccc(F)cc2)nc2cnc(N3CCNCC3)nc2n1Cc1cccs1" ?
**Result** 15.8 µM (active)

**Query** How about "COc1ccc(OCc2nnc(SCC(=O)O)n2N)cc1" ?
**Result** inactive

**Query** How about CC(Oc1ccc(Cl)cc1)c1ccnn1S(=O)(=O)c1ccccc1 (stereo unspecified) ?
**Result** 0.501 µM (active)

###

- target-of-assay: Cytochrome P450 2C19 (Homo sapiens)
- experiment-summary: Cytochrome panel assay with activity outcomes
- experimental-parameters: recombinant CYP, pro-luciferin dealkylation, luminescence, p450-cyp2c19; series mostly up to 57.1 µM
Among all 16,000 compounds or so, about 5,800 (36%) were called active. Not shown: some 23% with an inconclusive outcome. Calls follow the shape of the dose curve; as a rule, active = well fitted curve in the direction sought with a large enough effect; inconclusive = small, poorly fitted or top-dose-only effect, or effect the other way; inactive = no such curve, though single readings can be large or run the other way. Some of the results follow.
Respond only with the outcome that fits, drawn from True = active, False = inactive

Below, 2 compounds whose answers are already recorded.
>>> group_label("COc1ccc(CNc2ccnc(-c3ccccc3Cl)n2)c(OC)c1")
"True"
>>> group_label("N#Cc1ccccc1NC(=O)Nc1cccs1")
"False"

**Query** Name the outcome recorded for CON1C(=O)C(=O)N(OC)C2CCCCC21 (centres undefined) in the assay.
**Result** False

**Query** How about "COc1cccc(Nc2ncc3nc(-c4cc(F)cc(F)c4)c(=O)n(CCC#N)c3n2)c1" ?
**Result** False

**Query** How about CCCS(=O)(=O)N1CCCC(C(=O)NCCCOCC)C1 (centres undefined) ?
**Result** False

**Query** How about CCOC(=O)C1CCCN(C(=O)CSCc2ccccc2)C1 (centres undefined) ?
**Result** True

**Query** How about COc1cccc(NC(=O)COC(=O)c2c3c(nc4ccccc24)CCC(C)C3)c1 (centres undefined) ?
**Result** True

###

- target-of-assay: Cytochrome P450 2C19 (Homo sapiens)
- experiment-summary: Cytochrome panel assay with activity outcomes; as to activity, negative = inhibition: % is scaled to controls: 0 for no effect and ±100 for the full control effect
- experimental-parameters: recombinant CYP, pro-luciferin dealkylation, luminescence, p450-cyp2c19; series mostly up to 57.1 µM
About 5,800 (36%) of roughly 16,000 compounds were called active. About 23% were inconclusive and are not listed. The list shows a part of the results.
readout-kind: activity, negative = inhibition

>>> result("O=C1[C@H]2[C@H]3[C@H](O)[C@H](O)C/C(=N/OC[C@@H](O)COCc4ccco4)[C@@H]3CC[C@@H]2C(=O)N1C1CCCCC1")
"9.78% [at 11.4 µM] (inactive)"
>>> result("O=C(O)c1c[nH]c2cc(OCc3ccccc3)ccc2c1=O")
"0.142% [at 11.4 µM] (inactive)"

**Query** Entry "Cn1c(=O)c2[nH]c(CCC(=O)O)nc2n(C)c1=O" : reported activity, negative = inhibition = ?
**Result** 12% [at 11.4 µM] (inactive)

**Query** How about "O=C(O)C[C@H](S)C(=O)O" ?
**Result** 13.1% [at 11.4 µM] (inactive)

**Query** How about "CC(=O)OC[C@@H]1O[C@@H](O/N=C2/C[C@@H](O)[C@@H](O)[C@@H]3[C@@H]4C(=O)N([C@@H](C)c5ccccc5)C(=O)[C@H]4CC[C@H]23)[C@H](OC(C)=O)[C@H](OC(C)=O)[C@@H]1OC(C)=O" ?
**Result** -3.3% [at 11.4 µM] (inactive)

###

- target-of-assay: Cytochrome P450 2C19 (Homo sapiens) (UniProt P33261)
- experiment-summary: Cytochrome panel assay with activity outcomes
- experimental-parameters: recombinant CYP, pro-luciferin dealkylation, luminescence, p450-cyp2c19; series mostly up to 57.1 µM
Screen size: about 16,000 compounds; about 5,800 (36%) were called active. About 23% were inconclusive and are not listed. Calls follow the shape of the dose curve; as a rule, active = well fitted curve in the direction sought with a large enough effect; inconclusive = small, poorly fitted or top-dose-only effect, or effect the other way; inactive = no such curve, though single readings can be large or run the other way. The list shows a part of the results.
Respond only with the outcome that fits, drawn from 1 for active, -1 for inactive

Below, 2 compounds whose answers are already recorded.
>>> group_label("Cc1ccc(NC(=O)c2ccc(NCC3CCCO3)c([N+](=O)[O-])c2)cc1Cl (stereo unspecified)")
1
>>> group_label("COc1ccc(C(=O)N2CC3(CC(c4cccc([N+](=O)[O-])c4)=NO3)C[C@H]2C(=O)NCC(N)=O)cc1 (stereo partly specified)")
-1

**Query** Name the outcome recorded for "CCCC1c2c(ccc3ccccc23)Oc2ccc3ccccc3c21" in the assay.
**Result** 1

**Query** How about "CC(C)CN1CCC2(CC1)CCN(C(=O)c1cc(C(F)(F)F)cc(C(F)(F)F)c1)CC2" ?
**Result** -1

**Query** How about Cc1ccc2[nH]c3c(c2c1)CN(C(=O)CN1c2ccc(F)cc2CCC1C)CC3 (stereo unspecified) ?
**Result** 1

**Query** How about CCS(=O)(=O)N1CCC(C(=O)NCC2CCCO2)CC1 (stereo unspecified) ?
**Result** -1

**Query** How about "Nc1ccc(C(=O)NCC(=O)O)cc1" ?
**Result** -1
